Target: T1, FGFR-1 alpha IIIb, P11362
T1 chain: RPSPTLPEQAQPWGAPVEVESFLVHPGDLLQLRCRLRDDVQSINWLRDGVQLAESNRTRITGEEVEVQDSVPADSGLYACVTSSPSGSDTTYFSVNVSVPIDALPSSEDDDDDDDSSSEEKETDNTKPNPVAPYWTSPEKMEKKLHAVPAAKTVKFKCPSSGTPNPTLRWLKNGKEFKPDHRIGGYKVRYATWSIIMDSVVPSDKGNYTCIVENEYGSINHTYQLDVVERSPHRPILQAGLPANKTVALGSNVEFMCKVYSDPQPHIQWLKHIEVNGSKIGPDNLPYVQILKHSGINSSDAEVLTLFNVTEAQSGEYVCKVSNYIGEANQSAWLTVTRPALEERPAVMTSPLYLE
Assay: SPR (Horiba XelPlex), receptor immobilised, analyte in flow; given as 'associative binding constants'
pKd: −log10 of the molar value.
value-type: pKd

binder | value-type | val
YRSRKYTSWYVALKR (modifications not checked) [FGF-PT] | pKd | 5.82
